System: IL-13
ASSAY_REMARKS: Cytokine assay: IL-13 release from PHA-L stimulated human PBMCs
Type: cell-based
RECORDED_CONDITIONS: Homo sapiens, PBMC, read-out: IL13 IC50
pIC50: −log10 of the molar value.
Assign class by pIC50: not lower than 6 means yes (1); lower than 6 means no (0).

COc1ccc(-c2cc(C3COB(O)C3)ccn2)cc1OC1CCCC1 (single isomer, unassigned; enantiomer 2) [Example 211] = no (0)
CCCOc1cc(-c2cccc(C3=C(C)B(O)OC3)n2)ccc1OC = no (0)
COc1cc(-c2ccc(OC)c(OC3CCCC3)c2)nc(C2COB(O)C2)n1 (centres unmarked) [Example 175] = no (0)

Prompt: Could you please find out whether COc1ccc(-c2cccc(C3COB(O)C3)c2)cc1OC(C)C (centres unmarked) has pIC50 that meets 6 or exceeds it?
Completion: yes (1)

Prompt: I'd appreciate it if you could say whether CCCOc1cc(-c2cncc(C3COB(O)C3)c2)c(F)cc1OC (single isomer, unassigned) [Example 111] has pIC50 at least equal to 6.
Completion: yes (1)

Prompt: Determine whether measured pIC50 meets or exceeds 6 for CCOc1cc(-c2nc(C3COB(O)C3)cs2)ccc1OC (centres unmarked) [Example 58]
Completion: yes (1)

Prompt: Say whether CCOc1cc(-c2cc([C@H]3COB(O)C3)cnc2C)ccc1OC (single isomer, unassigned) shows pIC50 of 6 or more.
Completion: no (0)

Prompt: Answer whether pIC50 of CCCOc1cc(-c2cccc(C3COB(O)C3)n2)ccc1OC (centres unmarked) [Example 127] is greater than or equal to 6.
Completion: yes (1)

Prompt: Exam item: decide whether the reported pIC50 for CCCOc1cc(-c2cncc(C3COB(O)C3)c2)ncc1OC (single isomer, unassigned; enantiomer 1) [Example 179] is at least 6.
Completion: no (0)

Prompt: In plain terms: is recorded pIC50 at least 6 for COc1ccc(-c2cncc(C3COB(O)C3)c2)cc1OC(C)C (centres unmarked) ?
Completion: yes (1)

Prompt: Quick check: does CCCOc1c(OC)ccc(-c2cncc(C3COB(O)C3)c2)c1OC (centres unmarked) [Example 167] have pIC50 greater than or equal to 6?
Completion: no (0)

Prompt: hey, is pIC50 for this one >= 6? CCCOc1cc(-c2cncc(C3COB(O)C3)c2)cnc1OC (single isomer, unassigned) [Example 18]
Completion: yes (1)

Prompt: Test whether the molecule COc1ccc(-c2cccc(C3COB(O)C3)n2)cc1OC (centres unmarked) records pIC50 of 6 or higher.
Completion: no (0)

Prompt: Given CCOc1ccc(-c2cncc(C3COB(O)C3)c2)c(F)c1OC (centres unmarked) , state whether its pIC50 is at least 6.
Completion: no (0)

Prompt: Decide: is the reported value of pIC50 for CCCOc1cc(-c2nc(C(C)O)cc(C3COB(O)C3)n2)ccc1OC (centres unmarked) equal to or greater than 6?
Completion: yes (1)

====

Tested on: IL-13
ASSAY_REMARKS: Cytokine assay: IL-13 release from PHA-L stimulated human PBMCs
Format: cell-based
RECORDED_CONDITIONS: Homo sapiens, PBMC, read-out: IL13 IC50
Some compounds, each annotated with its measured log10 of IC50.
Log10 applied to IC50; unit prior to transform: nM.

Here's what some known entries look like.
CCCCCOc1cc(-c2cccc(C3COB(O)C3)c2)ccc1OC (stereo not drawn) = 2.70
CCOc1c(OC)ccc(-c2cncc(C3COB(O)C3)c2)c1C(F)(F)F (stereo not drawn) [Example 94] = 2.78
CCCOc1cc(-c2cncc(C3COB(O)C3)c2)ccc1SC (stereo not drawn) [Example 112] = 2.77
COc1ccc(-c2cncc(C3COB(O)C3)c2)cc1OC1CSC1 (stereo not drawn) = 2.57
CCOc1c(OC)cc(F)c(-c2cncc(C3COB(O)C3)c2)c1F (single isomer, unassigned; enantiomer 1) [Example 164] = 2.99
COc1ccc(-c2nc(C3COB(O)C3)cs2)cc1OC (stereo not drawn) = 2.97
CCCOc1cc(-c2nc(C3COB(O)C3)ns2)ccc1OC (stereo not drawn) = 3.10
CCCOc1c(OC)ccc(-c2cncc(C3COB(O)C3)n2)c1F (stereo not drawn) [Example 215] = 3.31
COc1cnc(-c2cccc(C3COB(O)C3)c2)nc1OC1CCCC1 (stereo not drawn) = 2.66
CCCOc1cc(-c2cccc(C3COB(O)C3)n2)ccc1OC (single isomer, unassigned) [Example 128] = 2.82

Prompt: Supply reported log10 of IC50 belonging to this compound: COc1cc(-c2cccc(C3COB(O)C3)c2)cc(C#N)c1OC (stereo not drawn)
Completion: 2.72

Prompt: Let me know recorded log10 of IC50 for CCCOc1cc(-c2nc(C)cc(C3COB(O)C3)n2)ccc1OC (single isomer, unassigned) [Example 22] , thanks.
Completion: 2.41

Prompt: Identify log10 of IC50 associated with the compound CCCOc1cc(-c2cc(C3COB(O)C3)cnc2C)cnc1OC (single isomer, unassigned; enantiomer 1) [Example 219]
Completion: 3.33

Prompt: Give me measured log10 of IC50, please, for this compound: CCOc1cc(-c2cncc(C3=CB(O)OC3)c2)ccc1OC
Completion: 3.44

Prompt: Read off the recorded log10 of IC50 for CCOc1cc(-c2cc(C3COB(O)C3)cnc2C)ccc1OC (stereo not drawn)
Completion: 3.42

Prompt: Note down log10 of IC50 recorded for CCOc1ccc(-c2cccc(C3COB(O)C3)c2)cc1OC (stereo not drawn)
Completion: 3.12

Prompt: Specify log10 of IC50 for COc1ccc(-c2cccc(C3COB(O)C3)n2)c(C#N)c1OC1CCCC1 (stereo not drawn) and stop.
Completion: 3.40

Prompt: Item COc1ccc(-c2cccc(C3COB(O)C3)c2)c(C#N)c1OC (stereo not drawn) : provide log10 of IC50
Completion: 3.09
